Record form. Attribute: viability, T/C. Fill in for each entry.
tested on: 266295-075-R-J1-PDC spheroid viability; assay: Anticancer human tumor 266295-075-R-J1-PDC patient-derived head and neck squamous carcinoma cell line growth inhibition [POLQ]; details: second compound 0.0316 µM; first compound 0.316 µM; active compounds read low; spheroids with HUVEC and MSC
One number for each entry, in %.

These recorded examples may help you get a feel for the data.
Compound	Tested Target	viability, T/C (%)
O=c1[nH]cc(F)c(=O)[nH]1 + Cc1cccc(N(C)C(=O)C2C(O)CCN2c2nc(C)cc(C(F)(F)F)c2C#N)c1	266295-075-R-J1-PDC spheroid viability	101
CCc1cc2c(N3CCc4c(cc(Cn5ccnc5)cc4-c4cn(C)nc4C(F)(F)F)C3=O)ccnc2c(OC)n1 + COC1C(OC(N)=O)C(O)C(Oc2ccc3c(O)c(NC(=O)c4ccc(O)c(CC=C(C)C)c4)c(=O)oc3c2C)OC1(C)C	266295-075-R-J1-PDC spheroid viability	119
C=CCn1c(=O)c2cnc(Nc3ccc(N4CCN(C)CC4)cc3)nc2n1-c1cccc(C(C)(C)O)n1 + Nc1ccc(C#CCN(C(=O)Cc2ncc(C(F)(F)F)cc2C(F)(F)F)c2ccc(F)cc2)nn1	266295-075-R-J1-PDC spheroid viability	86.2
CC1COCCN1c1cc(-c2ccnn2C)c2ccnc(-c3ccn[nH]3)c2n1 (stereo not given) + COC1C(OC(N)=O)C(O)C(Oc2ccc3c(O)c(NC(=O)c4ccc(O)c(CC=C(C)C)c4)c(=O)oc3c2C)OC1(C)C	266295-075-R-J1-PDC spheroid viability	71.2
O=C(c1cc(Cc2n[nH]c(=O)c3ccccc23)ccc1F)N1CCN(C(=O)C2CC2)CC1 + Nc1ccc(C#CCN(C(=O)Cc2ncc(C(F)(F)F)cc2C(F)(F)F)c2ccc(F)cc2)nn1	266295-075-R-J1-PDC spheroid viability	115

Batch of 2 compounds: report viability, T/C for each.
1. COc1cc(C2c3cc4c(cc3C(OC3OC5COC(C)OC5C(O)C3O)C3COC(=O)C23)OCO4)cc(OC)c1O (stereo not given) + Nc1ccc(C#CCN(C(=O)Cc2ncc(C(F)(F)F)cc2C(F)(F)F)c2ccc(F)cc2)nn1
2. CCc1cc2c(N3CCc4c(cc(Cn5ccnc5)cc4-c4cn(C)nc4C(F)(F)F)C3=O)ccnc2c(OC)n1 + Nc1ccc(C#CCN(C(=O)Cc2ncc(C(F)(F)F)cc2C(F)(F)F)c2ccc(F)cc2)nn1

1. 77.6
2. 105

----------
System: 266295-075-R-J1-PDC spheroid viability
Test: Anticancer human tumor 266295-075-R-J1-PDC cell line growth inhibition [POLQ];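 further: spheroids exposed to compounds for seven days before readout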
Conditions: second compound 0.1 µM; first compound 0.316 µM; active compounds read low; spheroids with HUVEC and MSC
Description: Multicellular complex tumor spheroid response to Polymerase (POL) inhibitors (novobiocin, ART-558, RP6685) in combination with a variety of drugs and investigational agents in selected tumor cell lines The POL inhibitors (novobiocin, ART-558, and RP6685) were evaluated both individually and in combination with standard of care and investigational anticancer small molecules within a complex spheroid model of solid tumors. . […]
Provide the recorded viability, T/C for the entries that follow.

The following molecules have reported results that may help.
Molecule	Measured
CCc1cc2c(N3CCc4c(cc(Cn5ccnc5)cc4-c4cn(C)nc4C(F)(F)F)C3=O)cc(C)nc2c(OC)n1 + Cc1cccc(N(C)C(=O)C2C(O)CCN2c2nc(C)cc(C(F)(F)F)c2C#N)c1	101%
CCCS(=O)(=O)Nc1ccc(F)c(C(=O)c2c[nH]c3ncc(-c4ccc(Cl)cc4)cc23)c1F + COC1C(OC(N)=O)C(O)C(Oc2ccc3c(O)c(NC(=O)c4ccc(O)c(CC=C(C)C)c4)c(=O)oc3c2C)OC1(C)C	105%

Using the record for COc1cc2cc(C(=O)CCC(=O)O)sc2cc1OC + Cc1cccc(N(C)C(=O)C2C(O)CCN2c2nc(C)cc(C(F)(F)F)c2C#N)c1 , state its measured viability, T/C.
82.9%

From: PubChem BioAssay AID1963853
